Listed below: viscosity values for each entry.
assay: xn = mol fraction of the nth substance listed; settings: 308.15 K; 100.5 kPa; Liquid; x1 = 0.95
Number only, in mPa·s; omit the unit.

>  <COMPOUND>
CCOC(=O)c1ccccc1 [ethyl benzoate] + CCO

>  <RESULT_UNITS>
mPa·s

>  <viscosity>
1.582

$$$$
>  <COMPOUND>
CC(=O)OCCC(C)C [3-methylbutyl ethanoate] + CCO

>  <RESULT_UNITS>
mPa·s

>  <viscosity>
0.703

$$$$
>  <COMPOUND>
CCCCCC(=O)OCC [ethyl hexanoate] + CCO

>  <RESULT_UNITS>
mPa·s

>  <viscosity>
0.815

$$$$
>  <COMPOUND>
CCOC(=O)Cc1ccccc1 [ethyl phenylacetate] + CCO

>  <RESULT_UNITS>
mPa·s

>  <viscosity>
1.914

$$$$

**Query** Fill in viscosity for record CCCCCCCC(=O)OCC [ethyl octanoate] + CCO
**Result** 1.177

**Query** Fill in viscosity for record CCCC(=O)OCCC(C)C [3-methylbutyl butanoate] + CCO
**Result** 0.941

----------
Listed below: viscosity values for each entry.
test: xn = mol fraction of the nth substance listed; details: 308.15 K; 100.5 kPa; Liquid; x1 = 0.55
Number only, in mPa·s; omit the unit.

Before answering, review these 5 worked examples.
>  <MOLECULE>
CCOC(=O)c1ccccc1 [ethyl benzoate] + CCO

>  <viscosity [mPa·s]>
1.209

$$$$
>  <MOLECULE>
CCCCCCCC(=O)OCC [ethyl octanoate] + CCO

>  <viscosity [mPa·s]>
1.033

$$$$
>  <MOLECULE>
CC(=O)OCCC(C)C [3-methylbutyl ethanoate] + CCO

>  <viscosity [mPa·s]>
0.668

$$$$
>  <MOLECULE>
CCCC(=O)OCCC(C)C [3-methylbutyl butanoate] + CCO

>  <viscosity [mPa·s]>
0.853

$$$$
>  <MOLECULE>
CCCCCC(=O)OCC [ethyl hexanoate] + CCO

>  <viscosity [mPa·s]>
0.761

$$$$

Next:
**Query** Fill in viscosity for record CCOC(=O)Cc1ccccc1 [ethyl phenylacetate] + CCO
**Result** 1.399

----------
assay: xn = mol fraction of the nth substance listed; settings: 318.15 K; 100.5 kPa; Liquid; x1 = 0.8
We use 1 mPa·s as the dividing line for viscosity: on or above the line is Yes, below is No.

Sample answers from the record:
>  <COMPOUND>
CCOC(=O)c1ccccc1 [ethyl benzoate] + CCO

>  <GROUP>
Yes

$$$$
>  <COMPOUND>
CCCCCCCC(=O)OCC [ethyl octanoate] + CCO

>  <GROUP>
No

$$$$
>  <COMPOUND>
CCOC(=O)Cc1ccccc1 [ethyl phenylacetate] + CCO

>  <GROUP>
Yes

$$$$
>  <COMPOUND>
CCCC(=O)OCCC(C)C [3-methylbutyl butanoate] + CCO

>  <GROUP>
No

$$$$
>  <COMPOUND>
CC(=O)OCCC(C)C [3-methylbutyl ethanoate] + CCO

>  <GROUP>
No

$$$$

**Query** Textbook exercise: given the entry CCCCCC(=O)OCC [ethyl hexanoate] + CCO , state whether its viscosity is greater than or equal to 1 mPa·s.
**Result** No

----------
experiment: xn = mol fraction of the nth substance listed; settings: 318.15 K; 101 kPa; Liquid; x1 = 0.45
Listed below: mass density values for each entry.
Number only, in kg/m3; omit the unit.

Before answering, review these 4 worked examples.
>  <MOLECULE>
CCOC(=O)c1ccccc1 [ethyl benzoate] + CCO

>  <RESULT_UNITS>
kg/m3

>  <TEST_VALUE>
939.2

$$$$
>  <MOLECULE>
CCCCCCCC(=O)OCC [ethyl octanoate] + CCO

>  <RESULT_UNITS>
kg/m3

>  <TEST_VALUE>
822.83

$$$$
>  <MOLECULE>
CCCC(=O)OCCC(C)C [3-methylbutyl butanoate] + CCO

>  <RESULT_UNITS>
kg/m3

>  <TEST_VALUE>
818.44

$$$$
>  <MOLECULE>
CCCCCC(=O)OCC [ethyl hexanoate] + CCO

>  <RESULT_UNITS>
kg/m3

>  <TEST_VALUE>
821.8

$$$$

**Query** Fill in mass density for record CCOC(=O)Cc1ccccc1 [ethyl phenylacetate] + CCO
**Result** 934.56

----------
assay: xn = mol fraction of the nth substance listed; conditions: 288.15 K; 101 kPa; Liquid; x1 = 0.65
MEASURED_ENDPOINT: mass density (kg/m3)
Number only, in kg/m3; omit the unit.

Before answering, review these 4 worked examples.
>  <COMPOUND>
CCOC(=O)c1ccccc1 [ethyl benzoate] + CCO

>  <RESULT_UNITS>
kg/m3

>  <mass density>
1005.91

$$$$
>  <COMPOUND>
CCCCCC(=O)OCC [ethyl hexanoate] + CCO

>  <RESULT_UNITS>
kg/m3

>  <mass density>
861.84

$$$$
>  <COMPOUND>
CCCCCCCC(=O)OCC [ethyl octanoate] + CCO

>  <RESULT_UNITS>
kg/m3

>  <mass density>
859.54

$$$$
>  <COMPOUND>
CCCC(=O)OCCC(C)C [3-methylbutyl butanoate] + CCO

>  <RESULT_UNITS>
kg/m3

>  <mass density>
856.19

$$$$

Next:
**Query** Fill in mass density for record CCOC(=O)Cc1ccccc1 [ethyl phenylacetate] + CCO
**Result** 997.27

----------
Listed below: mass density values for each entry.
experiment: xn = mol fraction of the nth substance listed; settings: 298.15 K; 101 kPa; Liquid; x1 = 0.15
Number only, in kg/m3; omit the unit.

>  <COMPOUND>
CCCCCC(=O)OCC [ethyl hexanoate] + CCO

>  <RESULT_UNITS>
kg/m3

>  <mass density>
811.53

$$$$
>  <COMPOUND>
CCOC(=O)Cc1ccccc1 [ethyl phenylacetate] + CCO

>  <RESULT_UNITS>
kg/m3

>  <mass density>
865.65

$$$$
>  <COMPOUND>
CCOC(=O)c1ccccc1 [ethyl benzoate] + CCO

>  <RESULT_UNITS>
kg/m3

>  <mass density>
865.01

$$$$
>  <COMPOUND>
CCCC(=O)OCCC(C)C [3-methylbutyl butanoate] + CCO

>  <RESULT_UNITS>
kg/m3

>  <mass density>
810.61

$$$$

Next:
**Query** Fill in mass density for record CCCCCCCC(=O)OCC [ethyl octanoate] + CCO
**Result** 813.27

----------
experiment: xn = mol fraction of the nth substance listed; conditions: 298.15 K; 100.5 kPa; Liquid; x1 = 0.5
We use 1 mPa·s as the dividing line for viscosity: on or above the line is true, below is false.

Sample answers from the record:
>  <COMPOUND>
CCCCCC(=O)OCC [ethyl hexanoate] + CCO

>  <GROUP>
false

$$$$
>  <COMPOUND>
CCOC(=O)c1ccccc1 [ethyl benzoate] + CCO

>  <GROUP>
true

$$$$
>  <COMPOUND>
CCCCCCCC(=O)OCC [ethyl octanoate] + CCO

>  <GROUP>
true

$$$$
>  <COMPOUND>
CC(=O)OCCC(C)C [3-methylbutyl ethanoate] + CCO

>  <GROUP>
false

$$$$

Now look at this one.
**Query** Textbook exercise: given the entry CCOC(=O)Cc1ccccc1 [ethyl phenylacetate] + CCO , state whether its viscosity is greater than or equal to 1 mPa·s.
**Result** true

----------
Listed below: viscosity values for each entry.
assay: xn = mol fraction of the nth substance listed; conditions: 298.15 K; 100.5 kPa; Liquid; x1 = 0.9
Number only, in mPa·s; omit the unit.

Before answering, review these 5 worked examples.
>  <COMPOUND>
CC(=O)OCCC(C)C [3-methylbutyl ethanoate] + CCO

>  <viscosity (mPa·s)>
0.799

$$$$
>  <COMPOUND>
CCCCCC(=O)OCC [ethyl hexanoate] + CCO

>  <viscosity (mPa·s)>
0.929

$$$$
>  <COMPOUND>
CCOC(=O)Cc1ccccc1 [ethyl phenylacetate] + CCO

>  <viscosity (mPa·s)>
2.23

$$$$
>  <COMPOUND>
CCCCCCCC(=O)OCC [ethyl octanoate] + CCO

>  <viscosity (mPa·s)>
1.371

$$$$
>  <COMPOUND>
CCOC(=O)c1ccccc1 [ethyl benzoate] + CCO

>  <viscosity (mPa·s)>
1.836

$$$$

Next:
**Query** Fill in viscosity for record CCCC(=O)OCCC(C)C [3-methylbutyl butanoate] + CCO
**Result** 1.086

----------
assay: xn = mol fraction of the nth substance listed; details: 308.15 K; 101 kPa; Liquid; x1 = 0.55
MEASURED_ENDPOINT: mass density (kg/m3)
Number only, in kg/m3; omit the unit.

>  <MOLECULE>
CCOC(=O)c1ccccc1 [ethyl benzoate] + CCO

>  <RESULT_UNITS>
kg/m3

>  <TEST_VALUE>
969.46

$$$$
>  <MOLECULE>
CCOC(=O)Cc1ccccc1 [ethyl phenylacetate] + CCO

>  <RESULT_UNITS>
kg/m3

>  <TEST_VALUE>
962.73

$$$$
>  <MOLECULE>
CCCC(=O)OCCC(C)C [3-methylbutyl butanoate] + CCO

>  <RESULT_UNITS>
kg/m3

>  <TEST_VALUE>
833.24

$$$$
>  <MOLECULE>
CCCCCC(=O)OCC [ethyl hexanoate] + CCO

>  <RESULT_UNITS>
kg/m3

>  <TEST_VALUE>
837.64

$$$$

**Query** Fill in mass density for record CCCCCCCC(=O)OCC [ethyl octanoate] + CCO
**Result** 837.34

Taken from the NIST ThermoML archive (doi:10.1021/je050389b).
